Consider the following molecules and their measured IC50 at 48 h readings.
- methodNotes: Cytotoxicity against human NCM460 cells assessed as reduction in cell viability incubated for 48 hrs by MTT assay
- Format: toxicity, cell-based
Field: numeric (µM). Do not append units.

CCn1c2ccccc2c2cc(/C=C/c3sc4ccc5ccccc5c4[n+]3C)ccc21 : 26.1

Now, please, on to the next molecule.
Determine from records and report IC50 at 48 h for CCn1c2ccccc2c2cc(/C=C/c3sc4ccccc4[n+]3C)ccc21
39.3

* * *

Consider the following compounds and their measured Kd readings.
- assayedTarget: Quadruplex DNA
- methodNotes: Binding affinity to G-quadruplex DNA VEGF (unknown origin) by fluorescence spectroscopic analysis
- Assay type: nucleic-acid assay
Please state the number and follow it with the unit.

Determine from records and report Kd for C[n+]1c(/C=C/c2ccc3c(c2)c2ccccc2n3Cc2ccccc2)[se]c2ccccc21.[I-]
17.9 µM

Determine from records and report Kd for CCn1c2ccccc2c2cc(/C=C/c3[se]c4ccccc4[n+]3C)ccc21
7.6 µM

* * *

Consider the following molecules and their measured Kd readings.
- assayedTarget: Quadruplex DNA
- methodNotes: Binding affinity to G-quadruplex DNA htg22 (unknown origin) by fluorescence spectroscopic analysis
- Type: nucleic-acid assay

CCn1c2ccccc2c2cc(/C=C/c3[se]c4ccccc4[n+]3C)ccc21 : 8.8 µM

Now, please, on to the next molecule.
Determine from records and report Kd for C[n+]1c(/C=C/c2ccc3c(c2)c2ccccc2n3Cc2ccccc2)[se]c2ccccc21.[I-]
> 20 µM

* * *

- assayedTarget: Quadruplex DNA
- methodNotes: Binding affinity to G-quadruplex DNA pu22 mutant (unknown origin) by fluorescence spectroscopic analysis
- Assay type: nucleic-acid assay
pKd: −log10 of the molar value.
Consider the following compounds and their measured pKd readings.

CCn1c2ccccc2c2cc(/C=C/c3[se]c4ccccc4[n+]3C)ccc21 : < 4.70

Now, please, on to the next compound.
Determine from records and report pKd for C[n+]1c(/C=C/c2ccc3c(c2)c2ccccc2n3Cc2ccccc2)[se]c2ccccc21.[I-]
< 4.70

* * *

- methodNotes: Cytotoxicity against human NCM460 cells assessed as reduction in cell viability incubated for 48 hrs by MTT assay
- Format: toxicity, cell-based
Consider the following molecules and their measured IC50 at 48 h readings.
Field: numeric (µM). Do not append units.

Recorded results for 2 molecules are shown here.
CCn1c2ccccc2c2cc(/C=C/c3[se]c4ccc5ccccc5c4[n+]3C)ccc21 : 42.5
C[n+]1c(/C=C/c2ccc3c(c2)c2ccccc2n3Cc2ccccc2)sc2ccccc21 : 45.6

Now, please, on to the next molecule.
Determine from records and report IC50 at 48 h for CN(C)CCCn1c2ccccc2c2cc(/C=C/c3oc4ccccc4[n+]3C)ccc21
35.6

* * *

- methodNotes: Cytotoxicity against human L02 cells assessed as reduction in cell viability incubated for 48 hrs by MTT assay
- Format: toxicity, cell-based
observable: IC50 at 48 h

C[n+]1c(/C=C/c2ccc3c(c2)c2ccccc2n3Cc2ccccc2)[se]c2ccccc21.[I-] : > 100 µM

Now, please, on to the next compound.
Determine from records and report IC50 at 48 h for CCn1c2ccccc2c2cc(/C=C/c3[se]c4ccccc4[n+]3C)ccc21
27.3 µM

* * *

- methodNotes: Cytotoxicity against human NCM460 cells assessed as reduction in cell viability incubated for 48 hrs by MTT assay
- Type: toxicity, cell-based
Consider the following compounds and their measured IC50 at 48 h readings.

Recorded results for 3 compounds are shown here.
CN(C)CCCn1c2ccccc2c2cc(/C=C/c3sc4ccccc4[n+]3C)ccc21 : 30.2 µM
C(=C\c1nc2ccccc2o1)/c1ccc2c(c1)c1ccccc1n2Cc1ccccc1 : > 100 µM
CCn1c2ccccc2c2cc(/C=C/c3nc4ccccc4s3)ccc21 : > 100 µM

Determine from records and report IC50 at 48 h for CCn1c2ccccc2c2cc(/C=C/c3nc4ccccc4o3)ccc21
> 100 µM

Determine from records and report IC50 at 48 h for CCn1c2ccccc2c2cc(/C=C/c3nc4ccccc4[se]3)ccc21
> 100 µM

* * *

- assayedTarget: Quadruplex DNA
- methodNotes: Binding affinity to G-quadruplex DNA HRAS (unknown origin) by fluorescence spectroscopic analysis
- Format: nucleic-acid assay
Consider the following molecules and their measured Kd readings.

CCn1c2ccccc2c2cc(/C=C/c3[se]c4ccccc4[n+]3C)ccc21 : > 20 µM

Determine from records and report Kd for C[n+]1c(/C=C/c2ccc3c(c2)c2ccccc2n3Cc2ccccc2)[se]c2ccccc21.[I-]
> 20 µM

* * *

Consider the following compounds and their measured IC50 at 48 h readings.
- methodNotes: Cytotoxicity against human NCM460 cells assessed as reduction in cell viability incubated for 48 hrs by MTT assay
- Type: toxicity, cell-based

Recorded results for 2 compounds are shown here.
CN(C)CCCn1c2ccccc2c2cc(/C=C/c3nc4ccccc4[se]3)ccc21 : > 100 µM
CN(C)CCCn1c2ccccc2c2cc(/C=C/c3nc4ccccc4s3)ccc21 : > 100 µM

Now, please, on to the next compound.
Determine from records and report IC50 at 48 h for C(=C\c1nc2ccccc2s1)/c1ccc2c(c1)c1ccccc1n2Cc1ccccc1
> 100 µM
